- Measured target: human mGluR5a receptor (Homo sapiens)
- Construct: cDNA subcloned into pcDNA3.1(-)
- Assay remarks: Cell-based functional Ca2+ mobilization assay (FDSS), potentiation of glutamate EC20 response
- Measurement context: HEK cells transfected with human mGluR5 (H10H or H12H); in presence of EC20 glutamate; read-out: EC50
- Protocol: Human embryonic kidney (HEK) cells transfected with rat mGluR5 were plated in clear bottom assay plates for assay in a Functional Drug Screening System (FDSS). […] After establishment of a fluorescence baseline for twelve seconds, the compounds of the present invention were added to the cells, and the response in cells was measured. […] Five minutes later, an mGluR5 agonist (e.g., glutamate, 3,5-dihydroxyphenylglycine, or quisqualate) was added to the cells, and the response of the cells was measured. […]
The label condition met is reserved for EC50 strictly under 0.4 µM; condition not met covers values equal to or above it.

Take the compound CC(C)CCc1cccc(N2CCn3nc(COc4ccccc4)cc3C2=O)n1 and say whether its EC50 is less than 0.4 µM.
condition met

Take the compound O=C1c2cc(COc3ccccc3)nn2CCN1c1cnc2ccccc2c1 and say whether its EC50 is less than 0.4 µM.
condition met

Take the compound COc1nc(N2CCn3nc(COc4ccccc4)cc3C2=O)ncc1F and say whether its EC50 is less than 0.4 µM.
condition met

* * *

- Measured target: human mGluR5a receptor (Homo sapiens)
- Construct: cDNA subcloned into pcDNA3.1(-)
- Assay remarks: Cell-based functional Ca2+ mobilization assay (FDSS), potentiation of glutamate EC20 response
- Measurement context: HEK cells transfected with human mGluR5 (H10H or H12H); in presence of EC20 glutamate; read-out: EC50
The label true is reserved for EC50 strictly under 60 nM; false covers values equal to or above it.

compound="COc1cc(OC)nc(N2CCn3nc(COc4ccccc4)cc3C2=O)n1 [Example 127]" class_label=false

Take the compound C[C@@H]1Cn2nc(COc3ccccc3)cc2C(=O)N1c1ccc(F)cn1 [Example 141] and say whether its EC50 is less than 60 nM.
false

Take the compound Cc1ccc(F)cc1N1CCn2nc(COc3ccccc3)cc2C1=O [Example 61] and say whether its EC50 is less than 60 nM.
false

Take the compound O=C1c2cc(COc3ccccc3)nn2CCN1c1ccc2nsnc2c1 [Example 371] and say whether its EC50 is less than 60 nM.
true

Take the compound Nc1cccc(N2CCn3nc(COc4ccccc4)cc3C2=O)n1 [Example 285] and say whether its EC50 is less than 60 nM.
false

* * *

Each entry below carries its recorded EC50.
- Measured target: human mGluR5a receptor (Homo sapiens)
- Construct: cDNA subcloned into pcDNA3.1(-)
- Assay remarks: Cell-based functional Ca2+ mobilization assay (FDSS), potentiation of glutamate EC20 response
- Measurement context: HEK cells transfected with human mGluR5 (H10H or H12H); in presence of EC20 glutamate; read-out: EC50
Express the result in nM but write the number alone.

molecule=COc1cncc(N2CCn3nc(COc4ccccc4)cc3C2=O)n1 measured_target="human mGluR5a receptor (Homo sapiens)" value_reported=105
molecule=COc1cc(N2CCn3nc(COc4ccccc4)cc3C2=O)nc(C)n1 measured_target="human mGluR5a receptor (Homo sapiens)" value_reported=219
molecule=COc1cc(N2CCn3nc(COc4ccccc4)cc3C2=O)ccc1F measured_target="human mGluR5a receptor (Homo sapiens)" value_reported=55
molecule=O=C1c2cc(COc3ccc(O)cc3)nn2CCN1c1ccc(F)cn1 measured_target="human mGluR5a receptor (Homo sapiens)" value_reported=3630
molecule=COc1cc(N2CCn3nc(COc4ccccc4)cc3C2=O)nc(OC)n1 measured_target="human mGluR5a receptor (Homo sapiens)" value_reported=120

Note: attention shifts to another entry.
Entry O=C1c2cc(COc3ccncn3)nn2CCN1c1ccc(F)cc1 , EC50 reported as 3720

* * *

- Measured target: human mGluR5a receptor (Homo sapiens, UniProt P41594)
- Construct: cDNA subcloned into pcDNA3.1(-)
- Sequence (P41594 21-1180 isoform P41594-2 limits assumed): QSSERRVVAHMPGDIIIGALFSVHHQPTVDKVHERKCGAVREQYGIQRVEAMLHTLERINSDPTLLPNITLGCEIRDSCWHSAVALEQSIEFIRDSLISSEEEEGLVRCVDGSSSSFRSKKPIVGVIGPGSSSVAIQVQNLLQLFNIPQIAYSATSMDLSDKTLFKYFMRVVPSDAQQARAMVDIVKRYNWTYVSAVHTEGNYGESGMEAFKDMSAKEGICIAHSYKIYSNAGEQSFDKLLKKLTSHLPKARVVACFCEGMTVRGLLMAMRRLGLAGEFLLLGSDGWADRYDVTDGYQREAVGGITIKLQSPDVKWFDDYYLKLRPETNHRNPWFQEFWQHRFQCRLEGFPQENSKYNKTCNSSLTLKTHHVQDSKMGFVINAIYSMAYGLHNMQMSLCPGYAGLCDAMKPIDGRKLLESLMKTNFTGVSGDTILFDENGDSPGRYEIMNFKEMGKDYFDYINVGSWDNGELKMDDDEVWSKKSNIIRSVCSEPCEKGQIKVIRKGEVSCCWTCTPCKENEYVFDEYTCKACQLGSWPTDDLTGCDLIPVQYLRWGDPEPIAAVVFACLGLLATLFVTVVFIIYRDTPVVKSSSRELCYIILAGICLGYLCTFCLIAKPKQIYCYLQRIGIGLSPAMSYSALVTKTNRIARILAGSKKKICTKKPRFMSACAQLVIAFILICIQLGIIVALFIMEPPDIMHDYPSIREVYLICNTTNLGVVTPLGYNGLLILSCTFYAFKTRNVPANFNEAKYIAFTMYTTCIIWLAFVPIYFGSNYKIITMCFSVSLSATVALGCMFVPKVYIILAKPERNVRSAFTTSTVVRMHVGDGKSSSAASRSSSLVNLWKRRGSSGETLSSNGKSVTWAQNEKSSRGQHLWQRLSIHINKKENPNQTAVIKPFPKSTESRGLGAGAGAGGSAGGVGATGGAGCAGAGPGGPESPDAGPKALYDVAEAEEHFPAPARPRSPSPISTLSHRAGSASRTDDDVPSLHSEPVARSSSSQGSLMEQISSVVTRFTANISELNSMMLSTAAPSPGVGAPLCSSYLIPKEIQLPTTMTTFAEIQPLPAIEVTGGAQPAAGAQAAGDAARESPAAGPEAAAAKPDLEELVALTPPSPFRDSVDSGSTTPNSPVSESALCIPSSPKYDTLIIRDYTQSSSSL
- Assay remarks: Cell-based functional Ca2+ mobilization assay (FDSS), potentiation of glutamate EC20 response
- Measurement context: HEK cells transfected with human mGluR5 (H10H or H12H); in presence of EC20 glutamate; read-out: EC50
Measured quantity: pEC50
Field pEC50 (float): negative decimal logarithm of the concentration in molar.

compound="CCOc1ccccc1N1CCn2nc(COc3ccccc3)cc2C1=O [Example 57]" measured_target="human mGluR5a receptor (Homo sapiens, UniProt P41594)" measured_quantity=pEC50 value_reported=6.82
compound="Cc1cccc(N2CCn3nc(COc4ccccc4)cc3C2=O)n1 [Example 10]" measured_target="human mGluR5a receptor (Homo sapiens, UniProt P41594)" measured_quantity=pEC50 value_reported=6.79
compound="O=C1c2cc(COc3ccccc3)nn2CCN1c1ccc2scnc2c1 [Example 361]" measured_target="human mGluR5a receptor (Homo sapiens, UniProt P41594)" measured_quantity=pEC50 value_reported=7.14
compound="COc1ccccc1N1CCn2nc(COc3ccccn3)cc2C1=O [Example 214]" measured_target="human mGluR5a receptor (Homo sapiens, UniProt P41594)" measured_quantity=pEC50 value_reported=5.96
compound="COc1ccc(N2CCn3nc(COc4ccccc4)cc3C2=O)cc1 [Example 50]" measured_target="human mGluR5a receptor (Homo sapiens, UniProt P41594)" measured_quantity=pEC50 value_reported=6.92
compound="Cc1nccc(N2CCn3nc(COc4ccccc4)cc3C2=O)n1 [Example 94]" measured_target="human mGluR5a receptor (Homo sapiens, UniProt P41594)" measured_quantity=pEC50 value_reported=6.29
compound="O=C1c2cc(COc3ccccc3)nn2CCN1c1cccc(=O)[nH]1 [Example 359]" measured_target="human mGluR5a receptor (Homo sapiens, UniProt P41594)" measured_quantity=pEC50 value_reported=6.38
compound="Cc1cccc(N2CCn3nc(COc4ccccn4)cc3C2=O)c1 [Example 216]" measured_target="human mGluR5a receptor (Homo sapiens, UniProt P41594)" measured_quantity=pEC50 value_reported=6.39

Entry COc1nccc(N2CCn3nc(COc4ccccn4)cc3C2=O)n1 [Example 210] , pEC50 reported as 5.67

Entry CN(C)c1nccnc1N1CCn2nc(COc3ccccc3)cc2C1=O [Example 288] , pEC50 reported as 6.40

* * *

Each entry below carries its recorded melting point.
Express the result in °C but write the number alone.

Solved entries (count: 5):
compound="Cc1ccc(OCc2cc3n(n2)CCN(c2ccc(F)cc2)C3=O)nc1 [Example 183]" reading_unit=°C value_reported=236.2
compound="O=C1c2cc(COc3ccccc3)nn2CCN1c1ccccc1F [Example 9]" reading_unit=°C value_reported=154.7
compound="COc1ccccc1N1CCn2nc(COc3ccccc3)cc2C1=O [Example 47]" reading_unit=°C value_reported=145.8
compound="COc1nc(N2CCn3nc(COc4ccccc4)cc3C2=O)cnc1C [Example 102]" reading_unit=°C value_reported=158.1
compound="O=C1c2cc(COc3ccccc3)nn2CCN1c1nccc(N2CCCC2)n1 [Example 309]" reading_unit=°C value_reported=143.2

Entry CC1CN(c2ccc(F)cc2)C(=O)c2cc(COc3ccc(F)cc3)nn21 (racemic) [Example 234] , melting point reported as 164.2

Entry Cc1ncc(N2CCn3nc(COc4ccccc4)cc3C2=O)cn1 [Example 33] , melting point reported as 283.4

Entry O=C1c2cc(COc3ccccc3)nn2CCN1c1ccncn1 [Example 80] , melting point reported as 148.9

Entry COc1cnc(N2CCn3nc(COc4ccccc4)cc3C2=O)nc1 [Example 353] , melting point reported as 266.9

Entry Cc1nc(N2C(=O)c3cc(COc4ccccc4)nn3C[C@H]2C)ccc1F [Example 140] , melting point reported as 156

Entry CNc1nc(N2CCn3nc(COc4ccccc4)cc3C2=O)ncc1F [Example 279] , melting point reported as 176.6

Entry CC1CN(c2cccc(F)c2)C(=O)c2cc(COc3ccc(F)cc3)nn21 (racemic) [Example 235] , melting point reported as 128.1

Entry Cc1cc(N2CCn3nc(COc4ccccc4)cc3C2=O)ncn1 [Example 83] , melting point reported as 143.7

Entry COc1ccnc(N2CCn3nc(COc4ccccc4)cc3C2=O)n1 [Example 78] , melting point reported as 144.5

Entry COc1ccc(N2CCn3nc(COc4ccccc4)cc3C2=O)c(C)n1 [Example 114] , melting point reported as 136.3

Entry Cc1nc(N2C(=O)c3cc(COc4ccccc4)nn3C[C@@H]2C)ccc1F [Example 138] , melting point reported as 93.3

Entry Cc1cc(F)cc(N2CCn3nc(COc4ccccc4)cc3C2=O)c1 [Example 297] , melting point reported as 116.3

* * *

- Measured target: human mGluR5a receptor (Homo sapiens, UniProt P41594)
- Construct: cDNA subcloned into pcDNA3.1(-)
- Assay remarks: Cell-based functional Ca2+ mobilization assay (FDSS), potentiation of glutamate EC20 response
- Measurement context: HEK cells transfected with human mGluR5 (H10H or H12H); in presence of EC20 glutamate
Measured quantity: pEC50
Number, no unit, nothing else.

Solved entries (count: 3):
molecule=O=C1c2cc(COc3ccccc3)nn2CCN1c1cccc(C2CCOCC2)n1 measured_quantity=pEC50 value_reported=5.59
molecule=O=C1c2cc(COc3ccccn3)nn2CCN1c1ccc(F)cc1 measured_quantity=pEC50 value_reported=6.32
molecule="CC1CN(c2ccc(F)cc2)C(=O)c2cc(COc3ccccc3)nn21 (single isomer, unassigned)" measured_quantity=pEC50 value_reported=7.08

Entry CC1CN(c2ccc(F)cn2)C(=O)c2cc(COc3ccc(F)cc3)nn21 (racemic) , pEC50 reported as 6.70

Entry Cc1ccccc1N1CCn2nc(COc3ccccn3)cc2C1=O , pEC50 reported as 6.59

Entry CC1CN(c2ccc(F)cn2)C(=O)c2cc(COc3ccccc3)nn21 (single isomer, unassigned) , pEC50 reported as 7.00
